IC50 by entry:
System: MGC-803 late stage differentiation gastric cancer cell
Experiment: MTT anti-proliferative assay, MGC-803
Type: cell-based, human
Recorded conditions: MTT, 48 h

Compound: N#C/C(=C\c1cccs1)c1ccc(C(F)(F)F)cc1 [Compound 1f3b]
IC50: > 100 µM
//
Compound: CCc1ccc(/C=C(\C#N)c2ccc(C(F)(F)F)cc2)cc1 [Compound 1f2p]
IC50: > 100 µM
//
Compound: CC(C)c1ccc(/C=C(\C#N)c2ccc(C(F)(F)F)cc2)cc1 [Compound 1f2q]
IC50: > 100 µM
